Molecular target: human porphobilinogen synthase (HsPBGS) (Homo sapiens, UniProt P13716, C162A/K59N)
Sequence (P13716 1-330 K59N/C162A): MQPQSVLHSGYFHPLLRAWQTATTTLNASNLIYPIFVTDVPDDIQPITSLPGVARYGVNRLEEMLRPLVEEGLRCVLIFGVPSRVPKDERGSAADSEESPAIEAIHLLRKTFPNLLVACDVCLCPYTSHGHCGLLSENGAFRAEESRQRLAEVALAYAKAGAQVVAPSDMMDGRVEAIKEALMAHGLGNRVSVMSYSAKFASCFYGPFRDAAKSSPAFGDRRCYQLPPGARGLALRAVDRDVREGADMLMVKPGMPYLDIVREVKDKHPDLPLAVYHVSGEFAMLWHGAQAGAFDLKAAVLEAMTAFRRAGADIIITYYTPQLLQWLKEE
Assay: biochemical
Type: biochemical
Settings: fit of the inhibition curve; 0 = hyperbolic decay to zero
Consider the following molecules and their measured FAmin (minimum fractional activity derived from the titration) readings.
Field: value (include unit after the number)

Answered examples (5):
CC(=O)[O-].CC(=O)[O-].[Cd+2] [Cadmium acetate] | 16.7 ± 4.0%
CNc1ccc(O)cc1.CNc1ccc(O)cc1.O=S(=O)(O)O [N-methyl-p-aminophenol sulfate] | 0%
O=C1[C@H]2CC=CC[C@H]2C(=O)N1SC(Cl)(Cl)Cl | 0%
CC1=C2[C@H](/C=C(\C)C(=O)O)CC[C@@H](C)[C@H]2CC1 | 33.2 ± 3.9%
O=Cc1ccccc1Cl | 0%

Quick one: FAmin (minimum fractional activity derived from the titration) of NC(=O)NN=Cc1ccc([N+](=O)[O-])o1 [Nitrofurazone, 5-nitro-2-furaldehyde semicarbazone, reference compound] ?
0%

Quick one: FAmin (minimum fractional activity derived from the titration) of O=[N+]([O-])c1cccc(CCl)c1 [m-Nitrobenzyl chloride] ?
0%

Quick one: FAmin (minimum fractional activity derived from the titration) of [Cl][Cd][Cl] [Cadmium chloride] ?
9.2 ± 4.5%

Quick one: FAmin (minimum fractional activity derived from the titration) of O=C1OC(O)C(C(Cl)Cl)=C1Cl (stereo not drawn) ?
0%
